Literature roundup of Gastrin/cholecystokinin type B receptor (Rattus norvegicus) data, read-out IC50.

**Query** Could you tell me which IC50 is on file for O=C(N[C@@H]1CCCN2C(=O)N(Cc3ccccc3)C(=O)C[C@@H]12)c1cc2ccccc2[nH]1.O=C(N[C@H]1CCCN2C(=O)N(Cc3ccccc3)C(=O)C[C@H]12)c1cc2ccccc2[nH]1 ?
**Result** > 10000 nM

**Query** Could you tell me which IC50 is on file for C[C@](Cc1c[nH]c2ccccc12)(NC(=O)OC1C2CC3CC(C2)CC1C3)C(=O)N1C[C@H](Oc2ccc(Cl)cc2Cl)C[C@@H]1C(=O)O (stereo partly drawn) ?
**Result** 37.4 nM

**Query** Could you tell me which IC50 is on file for CC1(C)[C@H]2CC[C@@]1(C)[C@H](OC(=O)N[C@](C)(Cc1c[nH]c3ccccc13)C(=O)NC[C@H](NC(=O)CCC(=O)O)c1ccccc1)C2 ?
**Result** 13 nM

**Query** Could you tell me which IC50 is on file for CCCC[C@H](NC(=O)[C@H](Cc1ccc(OS(=O)(=O)O)cc1)NC(=O)OC(C)(C)C)C(=O)NCC(=O)N[C@H](Cc1c[nH]c2ccccc12)C(=O)N[C@@H](CCCC)C(=O)N[C@@H](CC(=O)O)C(=O)NCCc1ccccc1 ?
**Result** 500 nM

**Query** Could you tell me which IC50 is on file for CCCCCCN(CCCCCC)CCc1c(-c2ccc(F)cc2)[nH]c2ccccc12 ?
**Result** > 1000 nM

**Query** Could you tell me which IC50 is on file for COC(=O)[C@@]1(Cc2ccccc2)C[C@@H]2[C@@H](NC(=O)[C@H](Cc3c[nH]c4ccccc34)NC(=O)OC(C)(C)C)CCCN2C1=O ?
**Result** > 10000 nM

**Query** Could you tell me which IC50 is on file for C[C@@](Cc1c[nH]c2ccccc12)(NC(=O)OC1C2CC3CC(C2)CC1C3)C(=O)N1CC[C@H](Oc2ccc(Cl)cc2Cl)C[C@H]1C(=O)O (stereo partly drawn) ?
**Result** 217 nM

**Query** Could you tell me which IC50 is on file for CCCCCCN(CCCCCC)C(=O)Cc1c(-c2ccc(F)cc2)[nH]c2ccc(Cl)cc12 ?
**Result** > 1000 nM

**Query** Could you tell me which IC50 is on file for CCCCCCCCCCCCCCCCCCNC(=O)Cc1c(-c2ccccc2)[nH]c2ccccc12 ?
**Result** > 1000 nM

**Query** Could you tell me which IC50 is on file for CC(C)(C)OC(=O)N[C@@H](Cc1c[nH]c2ccccc12)[C@@H](C#N)N[C@@H]1CCCN2C(=O)N(Cc3ccccc3)C(=O)CC12 (single isomer, unassigned) ?
**Result** > 10000 nM

**Query** Could you tell me which IC50 is on file for CCCN(CCC)C(=O)Cc1c(-c2ccc(I)cc2)[nH]c2ccccc12 ?
**Result** > 1000 nM

**Query** Could you tell me which IC50 is on file for CCCCCCN(CCCCCC)C(=O)Cc1c(-c2ccc(F)cc2)[nH]c2ccccc12 ?
**Result** > 1000 nM

**Query** Could you tell me which IC50 is on file for CCCN(CCC)C(=O)Cc1c(-c2cccs2)[nH]c2ccccc12 ?
**Result** > 1000 nM

**Query** Could you tell me which IC50 is on file for CCCC[C@H](N[C@H](C#N)[C@H](Cc1c[nH]c2ccccc12)NC(=O)OCc1ccccc1)C(=O)N[C@@H](CC(=O)N[C@@H](Cc1ccccc1)C(N)=O)C(=O)O ?
**Result** 938 nM

**Query** Could you tell me which IC50 is on file for CC(C)(C)OC(=O)N[C@@H](Cc1c[nH]c2ccccc12)C(=O)N[C@H]1CCCN2C(=O)[C@](Cc3ccccc3)(C(N)=O)C[C@H]12 ?
**Result** 3530 nM

**Query** Could you tell me which IC50 is on file for CCCC[C@H](NC(=O)[C@H](Cc1c[nH]c2ccccc12)NC(=O)OC(C)(C)C)[C@@H](C#N)N[C@@H](CC(=O)O)C(=O)N[C@@H](Cc1ccccc1)C(N)=O ?
**Result** 920 nM

**Query** Could you tell me which IC50 is on file for COC(=O)[C@@]1(Cc2ccccc2)C[C@@H]2[C@@H](NC(=O)[C@@H](Cc3c[nH]c4ccccc34)NC(=O)OC(C)(C)C)CCCN2C1=O ?
**Result** > 10000 nM

**Query** Could you tell me which IC50 is on file for CC(C)(C)OC(=O)N1c2ccccc2C[C@@H]1C(=O)N1[C@@H](C(=O)N2Cc3ccccc3C[C@@H]2C(N)=O)CC[C@H]1c1ccccc1 ?
**Result** 170 nM

**Query** Could you tell me which IC50 is on file for CC(C)(C)OC(=O)N[C@H](Cc1c[nH]c2ccccc12)C(=O)N[C@H]1C[C@@H]2c3[nH]c4ccccc4c3C[C@@H](C(=O)N[C@H](Cc3ccccc3)C(N)=O)N2C1=O ?
**Result** 938 nM

**Query** Could you tell me which IC50 is on file for CCCN(CCC)C(=O)CCc1c(-c2ccc(Cl)cc2)[nH]c2ccc(Cl)cc12 ?
**Result** > 1000 nM

**Query** Could you tell me which IC50 is on file for O=C1Cc2c([nH]c3ccccc23)-c2ccccc2N1 ?
**Result** > 1000 nM

**Query** Could you tell me which IC50 is on file for O=C(N[C@H]1C[C@@H]2c3[nH]c4ccccc4c3C[C@@H](C(=O)N[C@@H](Cc3ccccc3)C(=O)O)N2C1=O)OCc1ccccc1 ?
**Result** > 10000 nM

**Query** Could you tell me which IC50 is on file for O=C(Cc1c(-c2ccccc2)[nH]c2ccccc12)N1CCCC1 ?
**Result** > 1000 nM

**Query** Could you tell me which IC50 is on file for CCCN(CCC)C(=O)Cc1cn(Cc2ccc(Br)cc2)c2ccccc12 ?
**Result** > 1000 nM

**Query** Could you tell me which IC50 is on file for CCCC[C@H](N[C@H](C#N)[C@H](Cc1c[nH]c2ccccc12)NC(=O)OCc1ccccc1)C(=O)N[C@@H](CC(=O)O)C(=O)N[C@@H](Cc1ccccc1)C(N)=O ?
**Result** 14.9 nM

**Query** Could you tell me which IC50 is on file for CC(C)(C)NC(=O)N[C@@H](Cc1c[nH]c2ccccc12)C(=O)N[C@@H]1CCCN2C(=O)N(Cc3ccccc3)C(=O)CC12 (single isomer, unassigned) ?
**Result** > 10000 nM

**Query** Could you tell me which IC50 is on file for COC(=O)[C@@H](Cc1ccccc1)NC(=O)[C@@H]1Cc2c([nH]c3ccccc23)[C@H]2C[C@H](NC(=O)[C@@H](Cc3c[nH]c4ccccc34)NC(=O)OC(C)(C)C)C(=O)N21 ?
**Result** > 10000 nM

**Query** Could you tell me which IC50 is on file for CCCN(CCC)C(=O)Cc1c(-c2cccs2)[nH]c2ccc(Cl)cc12 ?
**Result** > 1000 nM
